This collection of values is drawn from paper PMC8222333.

molecular target: d-enCas12a (Acidaminococcus sp., UniProt U2UMQ6 1-1307, E174R;S542R;K548R;D908A;E993A;D1235A); experiment: Spec-seq (native PAGE EMSA with sequencing of bound and unbound); 25 mM Tris-HCl pH 7.4, 150 mM KCl, 5 mM MgCl2, 10% glycerol, 1 mM DTT, 40 ng/uL salmon sperm DNA; 400 nM Cas12a, 480 nM crRNA, 50 nM library, 37 C 1 h; native PAGE at room temperature; high values mean tight binding; settings: protein: recombinant;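 note: relative affinity from the bound to unbound sequence frequency ratio in Spec-seq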
Reported values of binding signal for individual entries
Give just the number in lnKA; leave the unit off.

Example binders with recorded binding signal:
{"Binder": "ATAC (dsDNA) DNA 1: GCTATCTAGTGCTCAGTACGCACTGATACAGGAAACTTCTGGCAGGACCAGGTCATGAGATCGGAAGAGCACACGTCTGAACTCCAGTCA DNA 2: TGACTGGAGTTCAGACGTGTGCTCTTCCGATCTCATGACCTGGTCCTGCCAGAAGTTTCCTGTATCAGTGCGTACTGAGCACTAGATAGC RNA: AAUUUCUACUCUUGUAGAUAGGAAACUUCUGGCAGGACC", "binding signal (lnKA)": -4.61}
{"Binder": "CCAC (dsDNA) DNA 1: GCTATCTAGTGCTCAGTACGCACTGCCACAGGAAACTTCTGGCAGGACCAGGTCATGAGATCGGAAGAGCACACGTCTGAACTCCAGTCA DNA 2: TGACTGGAGTTCAGACGTGTGCTCTTCCGATCTCATGACCTGGTCCTGCCAGAAGTTTCCTGTGGCAGTGCGTACTGAGCACTAGATAGC RNA: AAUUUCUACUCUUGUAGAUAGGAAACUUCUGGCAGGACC", "binding signal (lnKA)": -5.65}
{"Binder": "ATTG (dsDNA) DNA 1: GCTATCTAGTGCTCAGTACGCACTGATTGAGGAAACTTCTGGCAGGACCAGGTCATGAGATCGGAAGAGCACACGTCTGAACTCCAGTCA DNA 2: TGACTGGAGTTCAGACGTGTGCTCTTCCGATCTCATGACCTGGTCCTGCCAGAAGTTTCCTCAATCAGTGCGTACTGAGCACTAGATAGC RNA: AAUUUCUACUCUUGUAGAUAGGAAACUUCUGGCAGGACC", "binding signal (lnKA)": -1.2}
{"Binder": "TCGC (dsDNA) DNA 1: GCTATCTAGTGCTCAGTACGCACTGTCGCAGGAAACTTCTGGCAGGACCAGGTCATGAGATCGGAAGAGCACACGTCTGAACTCCAGTCA DNA 2: TGACTGGAGTTCAGACGTGTGCTCTTCCGATCTCATGACCTGGTCCTGCCAGAAGTTTCCTGCGACAGTGCGTACTGAGCACTAGATAGC RNA: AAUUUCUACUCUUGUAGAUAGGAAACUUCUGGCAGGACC", "binding signal (lnKA)": -5.36}

Now look at this one.
Q) Which binding signal is listed for CACG (dsDNA) DNA 1: GCTATCTAGTGCTCAGTACGCACTGCACGAGGAAACTTCTGGCAGGACCAGGTCATGAGATCGGAAGAGCACACGTCTGAACTCCAGTCA DNA 2: TGACTGGAGTTCAGACGTGTGCTCTTCCGATCTCATGACCTGGTCCTGCCAGAAGTTTCCTCGTGCAGTGCGTACTGAGCACTAGATAGC RNA: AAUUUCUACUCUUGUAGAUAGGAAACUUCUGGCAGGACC ?
A) -4.44
